PEPCK-c (% UTC) listing for selected substances.
# Test system: PEPCK-c
# test-details: PEPCK-c mRNA expression in HepG2 cells
# Type: cell-based, human
# test-context: Experiment 1, basal (no insulin); HepG2; 100 nM oligomeric compound
In the oligonucleotide strings, read from the 5' end, every base follows the letter of its sugar. An asterisk marks phosphorothioate; unmarked linkages are phosphodiester. Other units and linkages are bracketed, terminal groups are in braces. A string of capitals states the bases alone. e = 2'-O-(2-methoxyethyl) (MOE); [5mC] = 5-methylcytosine
quantity: PEPCK-c (% UTC)

INSERT INTO assay_data (substance, tested_system, unit_of_measure, assay_result) VALUES
  ('327925 (antisense eT*eA*eG*e[5mC]*eT*eG*eG*eT*eT*eG*eA*eA*eG*eG*eG*eG*eA*e[5mC]*e[5mC]*eA*eA) [compound 327925]', 'PEPCK-c', '% UTC', 145),
  ('327913 (antisense eA*eA*e[5mC]*e[5mC]*eG*eA*eT*eT*eT*e[5mC]*eA*eA*eA*eT*eG*eG*eT*eG*e[5mC]*eT*eA*eG) [compound 327913]', 'PEPCK-c', '% UTC', 229),
  ('327878 (antisense e[5mC]*eT*eA*eG*eT*eG*eG*eT*e[5mC]*e[5mC]*eT*eA*eA*eA*e[5mC]*eA*eT*eT*eT*e[5mC]*eA*e[5mC]) [compound 327878]', 'PEPCK-c', '% UTC', 45),
  ('327905 (antisense e[5mC]*eA*eG*eA*e[5mC]*eT*e[5mC]*e[5mC]*eG*eG*eT*eG*eG*eA*eA*eT*eG*eA*eA*eG*eG*eA) [compound 327905]', 'PEPCK-c', '% UTC', 129),
  ('327892 (antisense eA*e[5mC]*eT*eT*eT*e[5mC]*eG*eG*eT*eT*eA*eT*e[5mC]*eT*eA*eG*e[5mC]*eT*eT*eT*eA) [compound 327892]', 'PEPCK-c', '% UTC', 75),
  ('327919 (antisense eG*eA*eA*eA*e[5mC]*e[5mC]*e[5mC]*eA*eG*e[5mC]*eA*eG*eA*e[5mC]*eA*eA*eT*eG*eT*eA*eG*e[5mC]*eT) [compound 327919]', 'PEPCK-c', '% UTC', 71),
  ('338664 (antisense e[5mC]*eA*eG*eA*e[5mC]*eT*e[5mC]*e[5mC]*e[5mC]*eA*eA*e[5mC]*eT*eG*eA*e[5mC]*e[5mC]*eA*eG*eA) [compound 338664]', 'PEPCK-c', '% UTC', 75),
  ('327933 (antisense eA*eA*eG*eG*eG*eA*eT*eT*e[5mC]*e[5mC]*eT*eG*eG*eG*eA*eA*eA*eA*e[5mC]*eT*eG*eG*eA*e[5mC]) [compound 327933]', 'PEPCK-c', '% UTC', 118),
  ('327876 (antisense eA*eA*e[5mC]*eA*e[5mC]*eT*eG*eA*eT*eT*eT*e[5mC]*eA*eA*eA*eT*eG*eG*eT*eG*e[5mC]*eT*eA) [compound 327876]', 'PEPCK-c', '% UTC', 119),
  ('327922 (antisense eT*e[5mC]*eA*eG*eT*eT*eT*eT*eG*e[5mC]*eA*eT*eG*eG*eA*eT*eT*eT*eG*e[5mC]*eA*e[5mC]*eA) [compound 327922]', 'PEPCK-c', '% UTC', 77),
  ('327880 (antisense eA*e[5mC]*eA*eA*eA*eT*eT*e[5mC]*eG*eG*eT*eT*e[5mC]*eT*eA*e[5mC]*eA*eG*eG*eG*eT*eA) [compound 327880]', 'PEPCK-c', '% UTC', 110);
